Record form. Attribute: pKd. Fill in for each entry.
- experimental-system: T1, HpDprA(5-217)WT (Helicobacter pylori 26695, UniProt O25100 5-217)
- T1 sequence: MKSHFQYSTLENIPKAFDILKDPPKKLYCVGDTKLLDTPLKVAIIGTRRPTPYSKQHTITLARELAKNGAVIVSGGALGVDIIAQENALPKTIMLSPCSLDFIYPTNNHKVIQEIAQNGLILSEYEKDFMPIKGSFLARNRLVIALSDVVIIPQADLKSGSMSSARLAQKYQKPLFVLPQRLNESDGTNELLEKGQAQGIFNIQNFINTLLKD
- assay-name: MST
Keep it numeric: pKd is minus log10 of the concentration in mol/L.

Challenge: I would be grateful if you could share the reported pKd for dsDNA30 (dsDNA) DNA 1: CCACAACTGGATGATGCGGCGAAGTACTGT DNA 2: ACAGTACTTCGCCGCATCATCCAGTTGTGG .
Response given: 6.08

Challenge: I would be grateful if you could share the reported pKd for AAAAAAAAAAAAAAAAAAAAAAAAAAAAAAAAAAA (ssDNA) [dA35] .
Response given: 5.92

Challenge: I would be grateful if you could share the reported pKd for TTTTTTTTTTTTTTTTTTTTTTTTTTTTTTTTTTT (ssDNA) [dT35] .
Response given: 7.50

Challenge: I would be grateful if you could share the reported pKd for CCACAACTGGATGATGCGGCGAAGTACTGT (ssDNA) [dR30] .
Response given: 6.43
